Catalogue of solubility (mole fraction) values
particulars: in ethanol, 288.15 K
observable: solubility (mole fraction)

1) CCOC(=O)[C@H](CCc1ccccc1)N[C@@H](C)C(=O)N1CCC[C@H]1C(=O)O.O=C(O)/C=C\C(=O)O: 0.00133
2) CCOC(=O)[C@H](CCc1ccccc1)N[C@@H](C)C(=O)O: 0.00312

---

particulars: in ethyl acetate, 303.15 K
Collected solubility (mole fraction) values appear next to each entry.
observable: solubility (mole fraction)

1. CCOC(=O)[C@H](CCc1ccccc1)N[C@@H](C)C(=O)O: 0.0115
2. CCOC(=O)[C@H](CCc1ccccc1)N[C@@H](C)C(=O)N1CCC[C@H]1C(=O)O.O=C(O)/C=C\C(=O)O: 0.00576

---

particulars: in n-octanol, 298.15 K
Catalogue of compounds with associated solubility (mole fraction)
observable: solubility (mole fraction)

1. CCOC(=O)[C@H](CCc1ccccc1)N[C@@H](C)C(=O)N1CCC[C@H]1C(=O)O.O=C(O)/C=C\C(=O)O: 0.00105
2. CCOC(=O)[C@H](CCc1ccccc1)N[C@@H](C)C(=O)O: 0.00284

---

solubility (mole fraction): recorded values
particulars: in isopropanol, 318.15 K
observable: solubility (mole fraction)

1. CCOC(=O)[C@H](CCc1ccccc1)N[C@@H](C)C(=O)N1CCC[C@H]1C(=O)O.O=C(O)/C=C\C(=O)O: 0.00176
2. CCOC(=O)[C@H](CCc1ccccc1)N[C@@H](C)C(=O)O: 0.00346

---

particulars: in acetone, 273.15 K
observable: solubility (mole fraction)

1. CCOC(=O)[C@H](CCc1ccccc1)N[C@@H](C)C(=O)O: 0.00387
2. CCOC(=O)[C@H](CCc1ccccc1)N[C@@H](C)C(=O)N1CCC[C@H]1C(=O)O.O=C(O)/C=C\C(=O)O: 0.00118

---

particulars: in ethyl acetate, 283.15 K
observable: solubility (mole fraction)

1. CCOC(=O)[C@H](CCc1ccccc1)N[C@@H](C)C(=O)O: 0.00951
2. CCOC(=O)[C@H](CCc1ccccc1)N[C@@H](C)C(=O)N1CCC[C@H]1C(=O)O.O=C(O)/C=C\C(=O)O: 0.00231

---

particulars: in acetonitrile, 313.15 K
Property: solubility (mole fraction); scope: individual molecules
observable: solubility (mole fraction)

1. CCOC(=O)[C@H](CCc1ccccc1)N[C@@H](C)C(=O)O: 0.00255
2. CCOC(=O)[C@H](CCc1ccccc1)N[C@@H](C)C(=O)N1CCC[C@H]1C(=O)O.O=C(O)/C=C\C(=O)O: 0.00261

---

Listed below: solubility (mole fraction) values for each entry.
particulars: in ethanol, 318.15 K
observable: solubility (mole fraction)

1) CCOC(=O)[C@H](CCc1ccccc1)N[C@@H](C)C(=O)N1CCC[C@H]1C(=O)O.O=C(O)/C=C\C(=O)O: 0.00536
2) CCOC(=O)[C@H](CCc1ccccc1)N[C@@H](C)C(=O)O: 0.00545

---

particulars: in acetonitrile, 288.15 K
observable: solubility (mole fraction)

1. CCOC(=O)[C@H](CCc1ccccc1)N[C@@H](C)C(=O)N1CCC[C@H]1C(=O)O.O=C(O)/C=C\C(=O)O: 0.000716
2. CCOC(=O)[C@H](CCc1ccccc1)N[C@@H](C)C(=O)O: 0.000427

---

particulars: in n-octanol, 278.15 K
observable: solubility (mole fraction)

1. CCOC(=O)[C@H](CCc1ccccc1)N[C@@H](C)C(=O)N1CCC[C@H]1C(=O)O.O=C(O)/C=C\C(=O)O: 0.000406
2. CCOC(=O)[C@H](CCc1ccccc1)N[C@@H](C)C(=O)O: 0.00223

---

Listed next: entries and their corresponding solubility (mole fraction).
particulars: in n-octanol, 293.15 K
observable: solubility (mole fraction)

1. CCOC(=O)[C@H](CCc1ccccc1)N[C@@H](C)C(=O)N1CCC[C@H]1C(=O)O.O=C(O)/C=C\C(=O)O: 0.00083
2. CCOC(=O)[C@H](CCc1ccccc1)N[C@@H](C)C(=O)O: 0.00263

---

particulars: in acetonitrile, 318.15 K
Recorded solubility (mole fraction) for the following compounds
observable: solubility (mole fraction)

1) CCOC(=O)[C@H](CCc1ccccc1)N[C@@H](C)C(=O)O: 0.00349
2) CCOC(=O)[C@H](CCc1ccccc1)N[C@@H](C)C(=O)N1CCC[C@H]1C(=O)O.O=C(O)/C=C\C(=O)O: 0.00334

---

particulars: in n-octanol, 273.15 K
Listed next: entries and their corresponding solubility (mole fraction).
observable: solubility (mole fraction)

1) CCOC(=O)[C@H](CCc1ccccc1)N[C@@H](C)C(=O)N1CCC[C@H]1C(=O)O.O=C(O)/C=C\C(=O)O: 0.000311
2) CCOC(=O)[C@H](CCc1ccccc1)N[C@@H](C)C(=O)O: 0.00215

---

particulars: in ethyl acetate, 273.15 K
observable: solubility (mole fraction)

1) CCOC(=O)[C@H](CCc1ccccc1)N[C@@H](C)C(=O)N1CCC[C@H]1C(=O)O.O=C(O)/C=C\C(=O)O: 0.0013
2) CCOC(=O)[C@H](CCc1ccccc1)N[C@@H](C)C(=O)O: 0.00898

---

particulars: in n-octanol, 308.15 K
observable: solubility (mole fraction)

1. CCOC(=O)[C@H](CCc1ccccc1)N[C@@H](C)C(=O)N1CCC[C@H]1C(=O)O.O=C(O)/C=C\C(=O)O: 0.00167
2. CCOC(=O)[C@H](CCc1ccccc1)N[C@@H](C)C(=O)O: 0.00343

---

particulars: in n-octanol, 313.15 K
observable: solubility (mole fraction)

1) CCOC(=O)[C@H](CCc1ccccc1)N[C@@H](C)C(=O)O: 0.00378
2) CCOC(=O)[C@H](CCc1ccccc1)N[C@@H](C)C(=O)N1CCC[C@H]1C(=O)O.O=C(O)/C=C\C(=O)O: 0.00206

---

Catalogue of solubility (mole fraction) readings, one per entry.
particulars: in n-octanol, 318.15 K
observable: solubility (mole fraction)

1) CCOC(=O)[C@H](CCc1ccccc1)N[C@@H](C)C(=O)O: 0.0042
2) CCOC(=O)[C@H](CCc1ccccc1)N[C@@H](C)C(=O)N1CCC[C@H]1C(=O)O.O=C(O)/C=C\C(=O)O: 0.00256

---

particulars: in ethyl acetate, 308.15 K
Known solubility (mole fraction) of a selection of molecules
observable: solubility (mole fraction)

1. CCOC(=O)[C@H](CCc1ccccc1)N[C@@H](C)C(=O)O: 0.0123
2. CCOC(=O)[C@H](CCc1ccccc1)N[C@@H](C)C(=O)N1CCC[C@H]1C(=O)O.O=C(O)/C=C\C(=O)O: 0.00689

---

particulars: in acetonitrile, 283.15 K
observable: solubility (mole fraction)

1. CCOC(=O)[C@H](CCc1ccccc1)N[C@@H](C)C(=O)N1CCC[C@H]1C(=O)O.O=C(O)/C=C\C(=O)O: 0.000569
2. CCOC(=O)[C@H](CCc1ccccc1)N[C@@H](C)C(=O)O: 0.000288

---

In this section, each of the compounds is paired with its reported solubility (mole fraction).
particulars: in isopropanol, 303.15 K
observable: solubility (mole fraction)

1) CCOC(=O)[C@H](CCc1ccccc1)N[C@@H](C)C(=O)O: 0.00221
2) CCOC(=O)[C@H](CCc1ccccc1)N[C@@H](C)C(=O)N1CCC[C@H]1C(=O)O.O=C(O)/C=C\C(=O)O: 0.000809

---

solubility (mole fraction) overview
particulars: in ethyl acetate, 298.15 K
observable: solubility (mole fraction)

1. CCOC(=O)[C@H](CCc1ccccc1)N[C@@H](C)C(=O)N1CCC[C@H]1C(=O)O.O=C(O)/C=C\C(=O)O: 0.00471
2. CCOC(=O)[C@H](CCc1ccccc1)N[C@@H](C)C(=O)O: 0.0109

---

particulars: in isopropanol, 293.15 K
observable: solubility (mole fraction)

1) CCOC(=O)[C@H](CCc1ccccc1)N[C@@H](C)C(=O)N1CCC[C@H]1C(=O)O.O=C(O)/C=C\C(=O)O: 0.000452
2) CCOC(=O)[C@H](CCc1ccccc1)N[C@@H](C)C(=O)O: 0.00164

---

Each entry below carries its recorded solubility (mole fraction).
particulars: in isopropanol, 278.15 K
observable: solubility (mole fraction)

1) CCOC(=O)[C@H](CCc1ccccc1)N[C@@H](C)C(=O)O: 0.00105
2) CCOC(=O)[C@H](CCc1ccccc1)N[C@@H](C)C(=O)N1CCC[C@H]1C(=O)O.O=C(O)/C=C\C(=O)O: 0.000184

---

Recorded measurements of solubility (mole fraction), one per entry
particulars: in isopropanol, 313.15 K
observable: solubility (mole fraction)

1) CCOC(=O)[C@H](CCc1ccccc1)N[C@@H](C)C(=O)N1CCC[C@H]1C(=O)O.O=C(O)/C=C\C(=O)O: 0.00133
2) CCOC(=O)[C@H](CCc1ccccc1)N[C@@H](C)C(=O)O: 0.00298
